# ASSAY METHOD TEXT: Oral bioavailability in Sprague-Dawley rat at 5 mg/kg by LC-MS analysis
# Format: ADME, organism-based
# TEST PARAMETERS: in vivo
Measured bioavailability of individual entries
State the answer as a number, implicitly in %.

C[C@@H](c1cn(-c2ccc(Cl)cc2F)nn1)[C@](O)(Cn1cncn1)c1ccc(F)cc1F ... 34

Moving on to another compound below.
For the compound C[C@@H](c1ncncc1F)[C@](O)(Cn1cncn1)c1ccc(F)cc1F , give its measured bioavailability value.
26
